target: 5-hydroxytryptamine receptor 4 (Homo sapiens) (UniProt Q13639); test: Agonist activity at human 5-HT4R expressed in GloSensor-22F6 expressing 2B2 cells co-expressing Galpha-s assessed as increase in cAMP accumulation up to 60 mins by luminometry relative to control 5-HT; assay type: functional, cell-based
Sequence (Q13639 whole entry): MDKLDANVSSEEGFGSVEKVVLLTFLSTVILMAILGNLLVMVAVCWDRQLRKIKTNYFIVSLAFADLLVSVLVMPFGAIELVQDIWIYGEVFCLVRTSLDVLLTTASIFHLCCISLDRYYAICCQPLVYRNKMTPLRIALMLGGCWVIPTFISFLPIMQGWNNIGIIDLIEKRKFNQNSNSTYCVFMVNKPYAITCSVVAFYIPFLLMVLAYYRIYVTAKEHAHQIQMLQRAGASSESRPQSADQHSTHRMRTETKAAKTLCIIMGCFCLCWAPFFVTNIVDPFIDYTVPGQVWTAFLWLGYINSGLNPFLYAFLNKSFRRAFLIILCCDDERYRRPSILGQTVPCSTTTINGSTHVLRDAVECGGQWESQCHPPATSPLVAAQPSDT
Quantity: Ratio

1. COc1cc(N)c(Cl)cc1C(=O)OCCN1CCC(NC(=O)NCCOCCOCCNC(=O)NCC(=O)OCc2ccccc2)CC1; 0.15
2. COc1cc(N)c(Cl)cc1C(=O)OCCN1CCC(NC(=O)NCCOCCOCCNC(=O)NCC(=O)O)CC1; 0.21
3. COc1cc(N)c(Cl)cc1C(=O)OCCN1CCC(NC(=O)NCCOCCOCCOCCOCCOCCOCCOCCOCCn2cc(CNC(=O)NCCCN(C)CCCNC(=O)NCc3cn(CCOCCOCCOCCOCCOCCOCCOCCOCCNC(=O)NC4CCN(CCOC(=O)c5cc(Cl)c(N)cc5OC)CC4)nn3)nn2)CC1; 0.16
